Cited source: ChEMBL document CHEMBL5528049

Recorded Papp A→B at 2 h, 50 µM, one value per entry.
assay.explanation: Apparent permeability from apical to basolateral side in human Caco-2 cells at 50 uM incubated for 120 mins by LCMS analysis
Report as a plain number; the unit ×10⁻⁶ cm/s is understood.

Cn1cnc(S(=O)(=O)N2CCC(Nc3ncc(C#N)c(-c4cnn(CC(F)(F)F)c4)n3)CC2)c1; 0.6
N#Cc1cnc(NC2CCN(S(=O)(=O)c3ccccn3)CC2)nc1-c1cnn(CC(F)(F)F)c1; 18
Cn1cc(S(=O)(=O)N2CCC(Nc3ncc(C(F)(F)F)c(-c4cnn(CC(F)(F)F)c4)n3)CC2)cn1; 19

We next turn to a different compound, shown below.
Q. Name the recorded Papp A→B at 2 h, 50 µM for CC(C)(O)Cn1cc(-c2nc(NC3CCN(S(=O)(=O)C4CC4)CC3)ncc2C(F)(F)F)cn1 .
A. 13

----------
study.system: Cytochrome P450 3A4 (Homo sapiens)
Sequence (P08684 whole entry): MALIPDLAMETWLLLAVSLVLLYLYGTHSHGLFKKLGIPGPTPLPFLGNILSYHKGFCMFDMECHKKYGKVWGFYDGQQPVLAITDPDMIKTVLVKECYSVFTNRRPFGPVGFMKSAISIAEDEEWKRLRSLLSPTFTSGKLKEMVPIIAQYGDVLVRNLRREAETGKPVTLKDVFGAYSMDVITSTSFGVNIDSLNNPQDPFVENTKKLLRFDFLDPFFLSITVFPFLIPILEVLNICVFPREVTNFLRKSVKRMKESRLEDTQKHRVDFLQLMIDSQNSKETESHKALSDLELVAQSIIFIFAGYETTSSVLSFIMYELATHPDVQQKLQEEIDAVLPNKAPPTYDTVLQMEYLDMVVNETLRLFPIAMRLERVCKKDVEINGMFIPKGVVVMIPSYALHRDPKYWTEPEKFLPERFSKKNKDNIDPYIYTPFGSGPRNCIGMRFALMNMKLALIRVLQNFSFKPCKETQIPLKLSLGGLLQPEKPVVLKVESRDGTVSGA
pIC50: −log10 of the molar value.
quantity: pIC50

Q. Reported pIC50 for CC(C)(O)Cn1cc(-c2nc(NC3CCN(S(=O)(=O)C4CC4)CC3)ncc2C(F)(F)F)cn1 : what is it?
A. < 4.60

----------
assay.explanation: Volume of distribution at steady state in Sprague-Dawley rat at 0.5 mg/kg, iv administered as cassette dose and measured upto 24 hrs by LC-MS/MS analysis
Format: ADME, organism-based
condition.context: in vivo, read-out: Vdss
Each entry below lists one item and its recorded Vd value.
Just the number please, in L/kg, no unit attached.

CC(C)(O)Cn1cc(-c2nc(NC3CCN(S(=O)(=O)C4CC4)CC3)ncc2C(F)(F)F)cn1; 1.8

Q. # get_value(readout='Vd', item= CNCc1ccc(-n2cc(-c3nc(NC4CCN(S(C)(=O)=O)CC4)ncc3C#N)cn2)c(Cl)c1 )
A. 5.7

----------
Target chain: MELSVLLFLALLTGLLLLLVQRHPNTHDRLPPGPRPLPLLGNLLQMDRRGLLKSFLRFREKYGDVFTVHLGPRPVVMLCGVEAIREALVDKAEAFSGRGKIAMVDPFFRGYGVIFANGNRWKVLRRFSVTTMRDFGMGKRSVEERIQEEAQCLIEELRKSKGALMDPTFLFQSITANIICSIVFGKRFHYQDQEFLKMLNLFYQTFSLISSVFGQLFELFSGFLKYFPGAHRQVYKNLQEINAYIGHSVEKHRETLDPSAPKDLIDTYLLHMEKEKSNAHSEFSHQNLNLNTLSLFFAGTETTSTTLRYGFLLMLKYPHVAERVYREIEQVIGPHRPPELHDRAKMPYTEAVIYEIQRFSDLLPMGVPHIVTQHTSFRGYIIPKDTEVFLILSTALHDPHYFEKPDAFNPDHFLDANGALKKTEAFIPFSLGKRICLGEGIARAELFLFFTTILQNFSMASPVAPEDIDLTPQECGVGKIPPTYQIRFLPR
pIC50: −log10 of the molar value.
quantity: pIC50

Q. Recorded pIC50 for CC(C)(O)Cn1cc(-c2nc(NC3CCN(S(=O)(=O)C4CC4)CC3)ncc2C(F)(F)F)cn1 , please?
A. < 4.60

----------
assay.explanation: Oral bioavailability in cynomolgus monkey at 3 mg/kg administered as cassette dose and measured upto 24 hrs by LC-MS/MS analysis
Type: ADME, organism-based, Macaca fascicularis
condition.context: in vivo
quantity: bioavailability (%)
# value in %; strip the unit string

Q. Quick one: bioavailability of Cn1cnc(S(=O)(=O)N2CCC(Nc3ncc(C(F)(F)F)c(-c4cnn(CC(F)(F)F)c4)n3)CC2)c1 ?
A. 8

----------
assay.explanation: AUC in cynomolgus monkey at 2 mg/kg, po administered as cassette dose and measured upto 24 hrs by LC-MS/MS analysis
Format: ADME, organism-based, Macaca fascicularis
condition.context: in vivo
quantity: AUC at 24 h (µM·h)
Output spec: scalar in µM·h, unitless text.

Q. Give its AUC at 24 h value. Item: CC(C)(O)Cn1cc(-c2nc(NC3CCN(S(=O)(=O)C4CC4)CC3)ncc2C(F)(F)F)cn1
A. 5.65

----------
assay.explanation: Intrinsic clearance in human liver microsomes at 1 uM measured upto 30 mins by LC/MS analysis
Assay type: ADME, Microsome
condition.context: read-out: CLH (converted)
quantity: CLint scaled at 1 µM (mL/min/kg)
Return type: number; implicit unit mL/min/kg.

Solved cases below.
CC(C)(O)Cn1cc(-c2nc(NC3CCN(S(=O)(=O)C4CC4)CC3)ncc2C(F)(F)F)cn1; 8.33
CNCc1ccc(-n2cc(-c3nc(NC4CCN(S(C)(=O)=O)CC4)ncc3C(F)(F)F)cn2)c(Cl)c1; 11.7
CS(=O)(=O)N1CCC(Nc2ncc(C(F)(F)F)c(-c3cnn(-c4ccc(C#N)cc4Cl)c3)n2)CC1; 8.33

Now let's try a different one.
Q. Item under review: Cn1cnc(S(=O)(=O)N2CCC(Nc3ncc(C(F)(F)F)c(-c4cnn(CC(F)(F)F)c4)n3)CC2)c1 . Reported CLint scaled at 1 µM?
A. 10

----------
assay.explanation: AUC in cynomolgus monkey at 1.5 mg/kg, po administered as cassette dose and measured upto 24 hrs by LC-MS/MS analysis
Format: ADME, organism-based, Macaca fascicularis
condition.context: in vivo
quantity: AUC at 24 h
Give your result as the value with the unit written after it.

Q. Which AUC at 24 h reading was recorded for the molecule CNCc1ccc(-n2cc(-c3nc(NC4CCN(S(C)(=O)=O)CC4)ncc3C#N)cn2)c(Cl)c1 ?
A. 0.923 µM·h

----------
assay.explanation: AUC in Sprague-Dawley rat at 3 mg/kg, po administered as cassette dose and measured upto 24 hrs by LC-MS/MS analysis
Type: ADME, organism-based
condition.context: in vivo
quantity: AUC at 24 h (µM·h)
Provide only the numeric value, understood in µM·h.

Cn1cnc(S(=O)(=O)N2CCC(Nc3ncc(C(F)(F)F)c(-c4cnn(CC(F)(F)F)c4)n3)CC2)c1; 6.95
CC(C)(O)Cn1cc(-c2nc(NC3CCN(S(=O)(=O)C4CC4)CC3)ncc2C(F)(F)F)cn1; 0.751

Now consider the entry below.
Q. Report AUC at 24 h for CNCc1ccc(-n2cc(-c3nc(NC4CCN(S(C)(=O)=O)CC4)ncc3C#N)cn2)c(Cl)c1 please.
A. 3.5

----------
assay.explanation: Cmax in cynomolgus monkey at 1.5 mg/kg, po administered as cassette dose and measured upto 24 hrs by LC-MS/MS analysis
Assay type: ADME, organism-based, Macaca fascicularis
condition.context: in vivo
quantity: Cmax (nM)
Report as a plain number; the unit nM is understood.

Q. Please look up its Cmax: CNCc1ccc(-n2cc(-c3nc(NC4CCN(S(C)(=O)=O)CC4)ncc3C#N)cn2)c(Cl)c1
A. 93

----------
study.system: Cyclin-dependent kinase 4/cyclin D1 (Homo sapiens, UniProt P11802)
Sequence (P11802 whole entry, the tested form may be a part): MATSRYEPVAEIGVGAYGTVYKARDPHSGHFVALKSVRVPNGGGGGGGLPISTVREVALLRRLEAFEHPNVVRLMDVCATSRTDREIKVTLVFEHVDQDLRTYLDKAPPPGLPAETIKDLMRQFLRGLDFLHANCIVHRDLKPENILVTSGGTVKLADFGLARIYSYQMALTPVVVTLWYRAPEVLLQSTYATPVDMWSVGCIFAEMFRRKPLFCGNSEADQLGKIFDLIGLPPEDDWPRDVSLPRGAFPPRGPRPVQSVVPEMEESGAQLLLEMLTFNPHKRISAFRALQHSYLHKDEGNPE
Sequence (P24385 whole entry, further chain, the tested form may be a part): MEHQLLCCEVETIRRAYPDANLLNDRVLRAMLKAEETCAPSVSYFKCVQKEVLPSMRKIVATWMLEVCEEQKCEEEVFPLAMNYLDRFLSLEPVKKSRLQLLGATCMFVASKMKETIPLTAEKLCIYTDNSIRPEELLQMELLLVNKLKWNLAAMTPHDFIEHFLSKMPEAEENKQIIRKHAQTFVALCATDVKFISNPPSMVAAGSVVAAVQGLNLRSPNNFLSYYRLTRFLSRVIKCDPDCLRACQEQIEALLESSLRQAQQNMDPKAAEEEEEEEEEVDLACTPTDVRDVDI
assay.explanation: Inhibition of N-terminal GST-tagged human CDK4 (4 to 303 residues)/N-terminal GST-tagged human Cyclin D1 (4 to 295 residues) expressed in Sf9 insect cells incubated for 60 mins in presence of ATP by HTRF assay
pIC50: −log10 of the molar value.
Would you please tag the item T when its pIC50 is 8 or above, and F when it is below?

Example results:
CS(=O)(=O)N1CCC(Nc2ncc(C(F)(F)F)c(-c3cnn(C4CCCCC4)c3)n2)CC1; T
CC(C)(O)Cn1cc(-c2nc(NC3CCN(S(C)(=O)=O)CC3)ncc2C(F)(F)F)cn1; F

Now consider the entry below.
Q. Decide: pIC50 of CN1CCC(n2cc(-c3nc(NC4CCN(S(C)(=O)=O)CC4)ncc3C(F)(F)F)cn2)CC1 >= 8?
A. F

----------
assay.explanation: Volume of distribution at steady state in Sprague-Dawley rat at 0.43 mg/kg, iv administered as cassette dose and measured upto 24 hrs by LC-MS/MS analysis
Assay type: ADME, organism-based
condition.context: in vivo, read-out: Vdss
quantity: Vd

Q. Give its Vd value. Item: Cn1cnc(S(=O)(=O)N2CCC(Nc3ncc(C(F)(F)F)c(-c4cnn(CC(F)(F)F)c4)n3)CC2)c1
A. 1.4 L/kg

----------
assay.explanation: Protein binding in human plasma assessed as free fraction incubated for 2 hrs by LC-MS/MS analysis
Assay type: ADME, cell-free
Threshold check on fraction unbound at 2 h: at or above 0.1 gives true (1), strictly below gives false (0).

Consider the worked cases shown below.
CNCc1ccc(-n2cc(-c3nc(NC4CCN(S(C)(=O)=O)CC4)ncc3C(F)(F)F)cn2)c(Cl)c1; false (0)
Cn1cc(S(=O)(=O)N2CCC(Nc3ncc(C(F)(F)F)c(-c4cnn(CC(F)(F)F)c4)n3)CC2)cn1; false (0)

// switching to the query compound
Q. Can CC(C)(O)Cn1cc(-c2nc(NC3CCN(S(=O)(=O)C4CC4)CC3)ncc2C(F)(F)F)cn1 be said to have fraction unbound at 2 h at or above 0.1?
A. true (1)

----------
assay.explanation: Cmax in cynomolgus monkey at 2 mg/kg, po administered as cassette dose and measured upto 24 hrs by LC-MS/MS analysis
Type: ADME, organism-based, Macaca fascicularis
condition.context: in vivo
quantity: Cmax (µM)
API: value field is a number in µM; no unit string.

Q. Entry under review: CC(C)(O)Cn1cc(-c2nc(NC3CCN(S(=O)(=O)C4CC4)CC3)ncc2C(F)(F)F)cn1 . Reported Cmax?
A. 0.962
